protocolText: Quantitative High-Throughput drug screen in 47 multiple myeloma cell lines against the NCATS MIPE library collection: OCIMY7_PLB cell viability assay (AID 1918987); note: nearly all actives have a fitted effect of over 65% in size
particulars: OCI-MY7 myeloma viability, CellTiter-Glo ATP, 48 h; series mostly up to 45.8 µM
Source text: PI: Beverly A. Mock Ph.D. Laboratory of Cancer Biology and Genetics, Center for Cancer Research, National Cancer Institute, National Institute of Health, Bethesda, Maryland […] 5; Detector; 425V; Luminescence; Viewlux PerkinElmer. […] 1. […] Briefly, the corresponding myeloma cell lines were screened in 1,536-well plates with 500 cells, 5-uL per well for inhibition of cell viability (assessed by measuring ATP levels with CellTiterGlo). […]
Inconclusive results are not listed. The source made the active and inactive calls. Calls come from the whole dose curve; as a rule, active = well fitted cell-killing curve with a large enough effect; inconclusive = small, poorly fitted or top-dose-only effect, or effect the other way; inactive = no such curve, though single readings can be large or run the other way.
Your response should consist of one outcome taken from active, inactive

Here are 3 molecules together with their reported answers.
[ask] Lab log entry: Cc1cc(Nc2cc(NC(=O)c3c(Cl)cccc3Cl)ccn2)nc(N)n1 — outcome as called in the assay?
[reply] active

[ask] Lab log entry: CCOc1ccccc1OCCNC(C)Cc1ccc(OC)c(S(N)(=O)=O)c1 (centres undefined) — outcome as called in the assay?
[reply] inactive

[ask] Lab log entry: CC1(C)OC2=C(C(=O)c3ccccc3C2=O)[C@H](NCc2ccccc2)[C@H]1O — outcome as called in the assay?
[reply] active

---
[ask] Lab log entry: CC(=O)Nc1nc(C)c(-c2ccc(Cl)c(S(=O)(=O)NCCO)c2)s1 — outcome as called in the assay?
[reply] active

[ask] Lab log entry: CCn1cc(-c2ccnc3[nH]c(-c4cccc(CN(C)C)c4)cc23)c(-c2ccc(NC(=O)N(C)C)cc2)n1 — outcome as called in the assay?
[reply] active

[ask] Lab log entry: CCN(CC)CCCCNc1ncc2cc(-c3cc(OC)cc(OC)c3)c(NC(=O)NC(C)(C)C)nc2n1 — outcome as called in the assay?
[reply] active

[ask] Lab log entry: CC1=C(CO)C(=O)O[C@@H]([C@@H](C)[C@H]2CC[C@H]3[C@@H]4C[C@H]5O[C@]56[C@@H](O)C=CC(=O)[C@]6(C)[C@@H]4CC[C@]23C)C1 — outcome as called in the assay?
[reply] active

[ask] Lab log entry: Cn1c2ccccc2c2c3c(c4c5ccccc5n(CCC#N)c4c21)CNC3=O — outcome as called in the assay?
[reply] active

[ask] Lab log entry: O=C(NC1CCNCC1)c1[nH]ncc1NC(=O)c1c(Cl)cccc1Cl — outcome as called in the assay?
[reply] active

---

Test system: PC49
protocolText: qHTS profiling for inhibitors of Plasmodium falciparum proliferation (AID 504749); note: nearly all actives have a fitted effect of over 60% in size
particulars: P. falciparum in erythrocytes, SYBR Green DNA, 72 h; series mostly up to 28.7 µM
Records with an inconclusive call do not appear. Active and inactive are the calls of the source. Calls come from the whole dose curve; as a rule, active = well fitted inhibition curve with a large enough effect; inconclusive = small, poorly fitted or top-dose-only effect; inactive = flat fitted curve, though single readings scatter.
propertyMeasured: outcome

[ask] outcome for Nc1ccc(S(=O)(=O)Nc2ncccn2)cc1 ?
[reply] inactive

[ask] outcome for C[C@H]1C[C@@H]2[C@@H]([C@@H](O)C[C@@]3(C)[C@H]2CC[C@]3(O)C(=O)CO)[C@@]2(C)C=CC(=O)C=C12 ?
[reply] inactive

[ask] outcome for COc1c(N2C[C@@H]3CCCN[C@H]3C2)c(F)cc2c(=O)c(C(=O)O)cn(C3CC3)c12 ?
[reply] inactive

[ask] outcome for O=C(O)CO.[NH2-].[NH2-].[Pt+2] ?
[reply] inactive

[ask] outcome for COc1cc(C(=O)NS(=O)(=O)c2ccccc2C)ccc1Cc1cn(C)c2ccc(NC(=O)OC3CCCC3)cc12 ?
[reply] inactive

---
[ask] outcome for Nc1ccn([C@@H]2CS[C@H](CO)O2)c(=O)n1 ?
[reply] inactive

[ask] outcome for CC(C)(C)NC(=O)[C@H]1CN(Cc2cccnc2)CCN1C[C@@H](O)C[C@@H](Cc1ccccc1)C(=O)N[C@H]1c2ccccc2C[C@H]1O ?
[reply] inactive

[ask] outcome for CC=CC1=C(C(=O)O)N2C(=O)[C@H](NC(=O)[C@H](N)c3ccc(O)cc3)[C@@H]2SC1 ?
[reply] inactive
